Tested on: U251 CNS
Method Summary: NCI-60 one-dose screen, 48 h
Experimental Conditions: 10 µM unless noted
The panel holds about 83,000 compounds, 20% with a hit somewhere; the sample as a whole holds those more often. Active and inactive are the calls of the source. The calls were made as follows: active = growth percent below 10; inactive = the rest.
Write down the outcome that applies. Available outcomes: yes (1) = active, no (0) = inactive

## Task Entry "COc1ccc(O)c(CNC(=O)CN2CCCC2=O)c1" : call = ?
## Result no (0)

## Task Query "CCOC(=O)N[C@H]1CCc2c(Br)c(OC)c(OC)c(OC)c2-c2ccc(SC)c(=O)cc21" next
## Result no (0)

## Task Entry "O=C(Nc1ccc(O)cc1)C(Cl)(Cl)Cl" please
## Result no (0)

## Task Then what about the molecule "CCOC(=O)CCN(C)C1=Nc2ccc(Cl)cc2C(c2ccccc2)=[N+]([O-])C1" ?
## Result no (0)

## Task Field entry: "COc1cc2c(=O)n(C3CCCCCCC3)c3c4cc[nH]c4ncc3c2cc1OC"
## Result no (0)

## Task // same read-out, input: "COC(=O)C12CC(NC(=O)c3csc([C@@H](C[C@H](C(C)C)N(C)C(=O)[C@@H](NC(=O)[C@H]4CCCCN4C)C4CC4)OC(C)=O)n3)(C1)C2"
## Result no (0)

## Task Input "COc1ccc(C(O)(C(=O)O)c2ccc(OC)cc2)cc1"
## Result no (0)

## Task Same question, "COc1cc([C@@H]2c3cc4c(cc3[C@H](OC(C)=O)[C@H]3COC(=O)[C@@H]23)OCO4)cc(OC)c1OC" this time
## Result yes (1)

## Task Entry to check: CC1CN1CCCCN1CC1C (centres undefined)
## Result no (0)

## Task Request: "COc1ccc(/C=C\c2cc(OC)c(OC)c(OC)c2)cc1NC(=O)/C=C/c1cc(OC)c(OC)c(OC)c1"
## Result no (0)

## Task Param item: "COc1cc([N+](=O)[O-])c2nc(C)ccc2c1[N+](=O)[O-]"
## Result no (0)

## Task Now this one: "CN(C)C(=O)Oc1ccc(Br)cc1"
## Result no (0)

## Task // same read-out, input: CCOC(=O)C(Cc1ccc(N(CCCl)CCCl)cc1)NC(=O)C(CC(C)C)NC(C)=O (centres undefined)
## Result no (0)

## Task Also need "Brc1ccc2c(c1)c(-c1nc(-c3c[nH]c4ncccc34)cs1)cn2CCN1CCOCC1" , thanks.
## Result no (0)

## Task Try the molecule "OCc1ccc2c(c1)OCO2"
## Result no (0)

## Task Ok, now O=C(O)C1C(C(=O)O)C2(Cl)C(Cl)=C(Cl)C1(Cl)C2(Cl)Cl.[Hg] (centres undefined)
## Result no (0)

## Task Same read-out for "CC(=O)O[C@H](C[C@H](C(C)C)N(C)C(=O)[C@@H](NC(=O)[C@H]1CCCCN1C)C(C)(C)C)c1nc(C(=O)N[C@@H](Cc2ccccc2)C[C@H](C)C(=O)O)cs1" ?
## Result no (0)

## Task Next up: "O=C(Nc1ccncc1F)c1cn(CC2CC2)c2ccccc12"
## Result no (0)

## Task // repeat for CCCCN1CCCC[C@@H]1C(=O)N[C@H](C(=O)N(C)[C@H](C[C@@H](OC(C)=O)c1nc(C(=O)NC2CCC(C(=O)OC)CC2)cs1)C(C)C)C(C)C (some centres undefined) and report
## Result no (0)

## Task Entry "CCCCCCCCOC(=O)CCN1CC1" please
## Result no (0)

## Task And for O=P1(NCCCl)OCCCN1CCCl (centres undefined) ?
## Result no (0)

## Task Try "CCCc1cc(O)c2c3c(c(=O)oc2c1)CN(C)CC3" next.
## Result no (0)

## Task Try this molecule next: "CC1=C(O)[C@@](C)(CCCCC[C@H](C)CCCCc2ccc(O)cc2)OOC1=O"
## Result no (0)

## Task Note, next up: CCN(CCO)C(Cc1ccccc1)c1ccccc1 (centres undefined)
## Result no (0)

## Task Also need "COC(=O)[C@@H](C)C[C@H](Cc1ccccc1)NC(=O)c1csc([C@@H](C[C@H](C(C)C)N(C)C(=O)[C@@H](NC(=O)[C@H]2CCCCN2C)C2CCCCC2)OC(C)=O)n1" , thanks.
## Result yes (1)

## Task // next record O=C(CC1(O)C(=O)Nc2ccc(Br)cc21)c1ccc(C(=O)NCC2CCC3(CC2)OOC2(CCCCC2)OO3)cc1 (centres undefined)
## Result no (0)

## Task And "O=[N+]([O-])c1cc([N+](=O)[O-])c(Nn2c3ccccc3c3ccccc32)c([N+](=O)[O-])c1" ?
## Result yes (1)

## Task Queued: NC1CC2CCCCC2CC1(O)c1ccccc1 (centres undefined)
## Result no (0)

## Task Would you mind doing CC(CC1CCCCC1)NCc1ccccc1 (centres undefined) as well?
## Result no (0)

## Task Now give it for COc1ccc2c(c1)c(C1(O)CC(CSC#N)OC1=O)cn2C(=O)c1ccc(Cl)cc1 (centres undefined) too.
## Result no (0)

## Task Would you mind doing "COc1ccc(C/C(C)=C(\c2ccc(OCCN3CCOCC3)cc2)c2ccc(OC(=O)Cc3ccccc3)cc2)cc1" as well?
## Result yes (1)

## Task Record: "Nc1ccc(Cl)cc1"
## Result no (0)

## Task What would you report for "COC(=O)[C@@H](C)C[C@H](Cc1ccc(F)cc1)NC(=O)c1csc([C@@H](C[C@H](C(C)C)N(C)C(=O)[C@@H](NC(=O)[C@H]2CCCCN2C)C(C)C)OC(C)=O)n1" ?
## Result yes (1)

## Task Proceed to "O[C@H](CN1CC1)[C@@H](O)CN1CC1"
## Result no (0)

## Task // next record "C/C(CC(C)(C)N1CC1)=N\NC(=O)Nc1cccc2ccccc12"
## Result no (0)

## Task Record: "O=[N+]([O-])c1cnc[nH]1"
## Result no (0)

## Task Now consider "CC1=C(CNO)C2=C(C)C3(CC3)[C@@](C)(O)C(=O)C2=C1" .
## Result yes (1)

## Task Same question, CN[C@@]1(c2ccccc2Cl)CCCC[C@@H]1NCC1CCCO1 (some centres undefined) this time
## Result no (0)

## Task Next entry: "C=C1C[C@](OC)([C@H](O)C(=O)N[C@@H](OC)[C@@H]2C[C@@H](O)C(C)(C)[C@@H](C[C@@H](COC)OC)O2)O[C@H](C)[C@@H]1C"
## Result yes (1)
